Assign combination Emax to each entry below.
Test system: WSU-NHL (B-Cell Non-Hodgkin's Lymphoma)
ASSAY_TEXT: combination Emax (second highest fraction inhibited in the dose matrix, 72 h); higher = more inhibition; extreme values may be limits of the assay
Numbers only.

Example cases with answers are listed next.
# COMPOUND, PROPERTY, ASSAY_VALUE
records = [
    ("COc1cccc(OCCCN)c1-c1cc(Nc2cnc(C#N)cn2)n[nH]1 [Prexasertib] + CN(C)CCCOc1ccc(-c2ccc3ncc4c(c3c2)n(C2CCOCC2)c(=O)n4C)cn1 [AZD0156] (first compound max 1 µM, 7x7, partner max 1 µM)", "combination Emax", 1),
    ("O=C(c1cc(Cc2n[nH]c(=O)c3ccccc23)ccc1F)N1CCN(C(=O)C2CC2)CC1 [Olaparib] + CC1(C)CCC(CN2CCN(c3ccc(C(=O)NS(=O)(=O)c4ccc(NCC5CCOCC5)c([N+](=O)[O-])c4)c(Oc4cnc5[nH]ccc5c4)c3)CC2)=C(c2ccc(Cl)cc2)C1 [Venetoclax] (first compound max 10 µM, 7x7, partner max 1 µM)", "combination Emax", 0.575),
    ("COc1cccc(OCCCN)c1-c1cc(Nc2cnc(C#N)cn2)n[nH]1 [Prexasertib] + Cc1cc2ncnn2cc1Nc1ncc2c(n1)n(C1CCOCC1)c(=O)n2C [AZD7648] (first compound max 1 µM, 7x7, partner max 10 µM)", "combination Emax", 1),
]

From here, focus on the item given below.
Query string: Suppose we examine the compound Cc1c2c(nn1C)CSCc1cc(n(C)n1)CSc1cc(c3ccccc3c1)OCCCc1c(C(=O)O)n(C)c3c-2c(Cl)ccc13 [AZD5991] + CCN(CCO)CCCOc1ccc2c(Nc3cc(CC(=O)Nc4cccc(F)c4)[nH]n3)ncnc2c1 [AZD2811] (first compound max 1 µM, 7x7, partner max 1 µM) ; what combination Emax value has been reported?
Result string: 0.92

---

System: A673 (Ewing's Sarcoma);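 also: after 72 h of two-drug dosing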
ASSAY_TEXT: Bliss excess, mean over the matrix (fraction); higher = more synergy
Assign Bliss excess to each entry below.
Numbers only.

# COMPOUND, SYSTEM_NAME, Bliss excess
data = [
    ("CC(=O)c1c(C)c2cnc(Nc3ccc(N4CCNCC4)cn3)nc2n(C2CCCC2)c1=O [Palbociclib] + Cc1c2c(nn1C)CSCc1cc(n(C)n1)CSc1cc(c3ccccc3c1)OCCCc1c(C(=O)O)n(C)c3c-2c(Cl)ccc13 [AZD5991] (first compound max 10 µM, 7x7, partner max 1 µM)", "A673 (Ewing's Sarcoma)", -0.0903),
    ("C[C@@H]1COCCN1c1cc(C2([S@](C)(=N)=O)CC2)nc(-c2ccnc3[nH]ccc23)n1 [AZD6738] + C1CC(C1)(C(=O)[O-])C(=O)[O-].N.N.[Pt+2] [Carboplatin] (first compound max 10 µM, 7x7, partner max 10 µM)", "A673 (Ewing's Sarcoma)", 0.0216),
]

Look up Bliss excess for the entries below, preserving their order.
1. Cn1cnc2c(F)c(Nc3ccc(Br)cc3Cl)c(C(=O)NOCCO)cc21 [Selumetinib] + C=CCn1c(=O)c2cnc(Nc3ccc(N4CCN(C)CC4)cc3)nc2n1-c1cccc(C(C)(C)O)n1 [AZD1775] (first compound max 10 µM, partner max 1 µM)
2. NC1(C(=O)N[C@@H](CCO)c2ccc(Cl)cc2)CCN(c2ncnc3[nH]ccc23)CC1 [Capivasertib] + COc1nnc2ccc(N3CCC(c4ccc(OCCN5CCN(C)C(=O)[C@H]5C)cc4)CC3)nn12 [AZD5153] (first compound max 10 µM, 7x7, partner max 1 µM)

Result string:
1. -0.0806
2. -0.0386
